# Tested on: LOX IMVI melanoma
# ASSAY INFO: NCI-60 one-dose screen, 48 h
# REPORTED CONDITIONS: 10 µM
This is part of a sample that, as a whole, favours compounds with a hit. Of some 83,000 tested, about 20% had one in any assay. Activity calls are given as the source filed them. The calls were made as follows: active = growth percent below 10; inactive = the rest.
Write down the outcome that applies. Available outcomes: active, inactive

// known answers, use as guide
COMPOUND: N#CCc1ccc([N+](=O)[O-])cc1
ANSWER LABEL: inactive

COMPOUND: O=C1c2ccccc2C(=O)c2c1ccc(C(=O)O)c2[N+](=O)[O-]
ANSWER LABEL: inactive

COMPOUND: CN1C(=O)CN2CCc3ccccc3C2c2cc(Cl)ccc21 (stereo not drawn)
ANSWER LABEL: inactive

COMPOUND: OC1OC(COC(c2ccccc2)(c2ccccc2)c2ccccc2)C(O)C(O)C1O (stereo not drawn)
ANSWER LABEL: inactive

COMPOUND: CCCCC(CC)COC(C)=O (stereo not drawn)
ANSWER LABEL: inactive

Query block: State the result this test recorded for C#CC(C(C)C)N(CCO)CCCC (stereo not drawn) .
Result block: inactive

Query block: For this compound, state the assay outcome: "O=C(O)/C=C/c1ccc2c(c1)CCC2"
Result block: inactive

Query block: Dear colleague, could you share the recorded outcome for "CCOC(=O)C(CCC(C)C)C(=O)OCC" when you have a moment?
Result block: inactive

Query block: State the result this test recorded for "Cc1cc(C(C)(C)C)cc(C)c1Br" .
Result block: inactive

Query block: Could you please tell me the result logged for "CC(C)=NNC(N)=S" in this assay?
Result block: inactive

Query block: Per the assay record, what outcome was assigned to Cc1cc(C(O)(c2ccc(Nc3ccccc3)cc2)c2ccc(Nc3ccc(S(=O)(=O)O)cc3)cc2)ccc1N (stereo not drawn) ?
Result block: active

Query block: Recorded test outcome, item "CC(C)(C)n1nc(C2CC2)c(Br)c1NC(=O)c1ccccc1F"
Result block: inactive

Query block: Query: recorded result category for O=P(O)(O)OCC(O)CO (stereo not drawn) in this test
Result block: inactive

Query block: Check the results log: what was the call for "Cc1c(O)cnc2nn(-c3ccccc3)c(=N)n12" ?
Result block: inactive

Query block: Hi team, can someone confirm the assay call for OCC(O)C(O)C(O)C(O)/C=N/O (stereo not drawn) ?
Result block: inactive

Query block: Status in this test for Nc1ccccc1SC(CC(=O)c1ccccc1)c1c(Cl)cccc1Cl (stereo not drawn) ?
Result block: inactive

Query block: Look up the recorded call for "O=C(c1ccccc1)C1CCC1" in this test.
Result block: inactive

Query block: Identify the outcome logged in this assay for the compound shown: "CC(=O)c1cc2c(cc1F)C(C)(C)CCC2(C)C"
Result block: inactive

Query block: Fill in: this test's call for "Cc1ccncc1C(N)=O" is ___
Result block: inactive

Query block: # lookup: test call for "Cc1cc2ccccc2c(O)c1C#N"
Result block: inactive

Query block: Hello, I am checking results. What call was entered for "COc1cccc(COC(=O)Nc2ccccc2)c1OC" ?
Result block: inactive

* * *

# Test system: COLO 205 colon
# ASSAY INFO: NCI-60 one-dose screen, 48 h (100 = growth as untreated, 0 = no growth, -100 = all killed)
# REPORTED CONDITIONS: 10 µM
# Experimental: Cells are grown in 96 well plates and exposed to the test compound for 48 hours. Compounds are tested at a single concentration, which is 10^-5 M for most compounds. The reported endpoint is percent growth (GI% or GIPRCNT), where numbers from 0 - 100% represent growth inhibition, and numbers from -100% - 0 represent cell death. For example, a value of 40 represents 60% growth inhibition. A value of 0 means no net growth occurred over the course of the experiment. […]
About 83,000 compounds went through this panel and 20% of them were active in at least one assay; those are over-represented in the sample as a whole.
# growth annotations
Answer in %, number only, no unit symbol.

COMPOUND: O=C(CCl)Nc1ccc2c(c1)C(=O)c1ccc(NC(=O)CCl)cc1C2=O
MEASURED PARAMETER: growth
UNITS TEXT: %
MEASURED: -50.8

Query block: Specify growth for "O=C(/C=C\c1ccc(O)cc1)c1ccccc1" and stop.
Result block: 98

Query block: Identify measured growth associated with CC1CC(O)CC(C)(C)C1 (centres undefined)
Result block: 102

* * *

Property: growth; scope: individual molecules
# Test system: HCT-15 colon
# ASSAY INFO: NCI-60 one-dose screen, 48 h (100 = growth as untreated, 0 = no growth, -100 = all killed)
# REPORTED CONDITIONS: 10 µM
Compounds without any hit were thinned out: in the full panel of roughly 83,000, 20% have a hit.
Your answer should be a plain number; it is taken to be in %.

MOLECULE: CCCC(=O)Nc1ccc2c(c1)CN1C(=O)c3ccccc3C1=N2
growth, %: 98.3
//
MOLECULE: COc1cc(C2NC(=O)C(C#N)=C(Nc3cccc(C)c3)S2)ccc1O (stereo unspecified)
growth, %: 111
//
MOLECULE: C[C@]12CC[C@@H]3c4ccc(OCC(=O)O)cc4CC[C@H]3[C@@H]1CCC2=O
growth, %: 106
//
MOLECULE: CC(=O)c1ccc(N=C(C#N)C2=C(O)c3ccccc3C2=O)cc1
growth, %: 113
//
MOLECULE: Cc1ccc(S(=O)(=O)O)c(C)c1
growth, %: 104
//
MOLECULE: CCOC(=O)c1ccc(NC(=S)P(=O)(c2ccccc2)c2ccccc2)cc1
growth, %: 98.5
//
MOLECULE: COc1ccc(-c2cc3c(nn2)-c2ccccc2C3=O)cc1
growth, %: 36.7
//
MOLECULE: CNC(=S)NC(C)(C)C
growth, %: 106

Query block: Fill in growth for record "CC1(C)OC(=O)C(c2ccsc2)C(=O)O1"
Result block: 109

Query block: Give the reported value of growth for this record: "O=C(Nc1cc(-c2ccccc2)[nH]n1)c1ccc(Cl)cc1"
Result block: 61.4

Query block: Hello, please tell me recorded growth for this one: CC1CCCCN1C(=S)Nc1ccc(S(=O)(=O)N2CCCCC2)cc1 (stereo unspecified)
Result block: 99.2

Query block: Give the reported growth for this molecule. "COc1cc2cc(OC(C)=O)c3cc4c(cc3c2c(OC)c1OC)OCO4"
Result block: 99.7

Query block: # return recorded growth for input "Cc1cccc(CO)c1"
Result block: 105

Query block: Look up growth of "COCCCC/C(=N\OCCN)c1ccc(C(F)(F)F)cc1" and report it.
Result block: 103

Query block: Indicate its recorded growth; the molecule in question is "Oc1ccccc1-c1nnco1"
Result block: 100

Query block: Tell me its growth given CC1CCC2C(C)(C)C3CC12CC1OC13C (stereo unspecified) as the entry.
Result block: 97.7

Query block: Quick one: give measured growth for "COc1cc2c(cc1OC)[C@H](C(=O)O)[C@@H](c1ccc(OC(C)C)c(OC)c1)N(C)C2=O"
Result block: 101

Query block: Please indicate growth recorded for "COCCCNC(=O)c1nnn2c1nc(N)c1cc(Cl)ccc12"
Result block: 85.6

Query block: For "O=C(CC(=O)c1ccccc1O)c1ccccc1" , write its growth.
Result block: 74.4

Query block: Fill in growth for record "CSc1[nH]c(=O)ncc1F"
Result block: 100

Query block: Identify measured growth associated with CC1NC(=O)NC1CCCCCC(=O)O (stereo unspecified)
Result block: 98.4

Query block: Give growth for the following molecule: "O=[N+]([O-])c1ccccc1N=Nc1ccc(O)cc1O"
Result block: 112

Query block: Tell me growth reported for "O=C(Cc1ccccc1)Cc1ccccc1"
Result block: 103

* * *

# Test system: NCI/ADR-RES ovarian
# ASSAY INFO: NCI-60 one-dose screen, 48 h (100 = growth as untreated, 0 = no growth, -100 = all killed)
# REPORTED CONDITIONS: 10 µM
# Method: Growth inhibition of the NCI/ADR-RES human […] tumor cell line is measured as a screen for anti-cancer activity. Cells are grown in 96 well plates and exposed to the test compound for 48 hours. Compounds are tested at a single concentration, which is 10^-5 M for most compounds. The reported endpoint is percent growth (GI% or GIPRCNT), where numbers from 0 - 100% represent growth inhibition, and numbers from -100% - 0 represent cell death. For example, a value of 40 represents 60% growth inhibition. […]
About 83,000 compounds went through this panel and 20% of them were active in at least one assay; those are over-represented in the sample as a whole.
MEASURED PARAMETER: growth (%)
I only need the number, in %, no unit after it.

COMPOUND: COc1ccc(OC)c(/C=C2\CCc3ccccc3C2=O)c1
MEASURED: 17.8

COMPOUND: Nc1ccc(N)c([N+](=O)[O-])c1
MEASURED: 107

COMPOUND: CSc1[nH]c(=O)ncc1F
MEASURED: 99.3

COMPOUND: COc1ccccc1N=Nc1c(O)ccc2cc(S(=O)(=O)O)ccc12
MEASURED: 99.8

Query block: Would you please give the reported growth of "c1ccc(CN2COc3c(ccc4c3OCN(Cc3ccccc3)C4)C2)cc1" with NCI/ADR-RES ovarian?
Result block: 16.6

Query block: Write growth of "C[C@@H](c1ccccc1)[C@@H](C(=O)O)c1ccccc1" ; system used: NCI/ADR-RES ovarian
Result block: 105

Query block: Determine reported growth for CCC(C)(O)c1ccc(C)cc1 (stereo not drawn) ; test system: NCI/ADR-RES ovarian.
Result block: 110

Query block: Write growth of "O=S(=O)(O)c1ccc(O)c2ccccc12" ; system used: NCI/ADR-RES ovarian
Result block: 98

Query block: Would you please give the reported growth of "S=C1NCc2cncnc2N1" with NCI/ADR-RES ovarian?
Result block: 106
